Hey, just so you know, these numbers are from patent US20050070508A1.

- targetUnderTest: human vascular endothelial growth factor receptor 2 (VEGF-R2) (Homo sapiens, UniProt P35968, DEL940-989/E990V)
- Construct: VEGF-R2D50 contains residues 806-939 and 990-1171
- Sequence (P35968 with tags, fused parts or gaps DEL940-989/E990V limits assumed): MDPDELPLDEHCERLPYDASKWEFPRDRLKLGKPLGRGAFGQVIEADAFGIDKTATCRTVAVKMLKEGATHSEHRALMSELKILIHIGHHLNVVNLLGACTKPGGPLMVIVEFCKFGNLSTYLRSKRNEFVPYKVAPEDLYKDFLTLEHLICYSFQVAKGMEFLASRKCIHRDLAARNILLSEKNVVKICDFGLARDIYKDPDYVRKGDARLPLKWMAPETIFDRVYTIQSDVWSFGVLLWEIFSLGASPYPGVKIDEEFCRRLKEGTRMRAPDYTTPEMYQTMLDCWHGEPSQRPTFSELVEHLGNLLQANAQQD
- experimentalProtocol: VEGF-R2 coupled spectrophotometric assay (FLVK)
- reportedConditions: unphosphorylated VEGF-R2D50 (FLVK)
pKi: −log10 of the molar value.
observationType: pKi

CN(C)CCNC(=O)c1cccc2cc(Oc3ccnc4ccsc34)ccc12 | < 8.00
CNC(=O)c1cccc2cc(Oc3ccnc4cc(O)ccc34)ccc12 | < 8.00
COc1ccc2c(Oc3ccc4c(C(=O)NC(C)C)cccc4c3)ccnc2c1 | 8.00 to 9.00
CNC(=O)c1cccc2cc(Oc3ccnc4cc(C(=O)N(C)CCCN(C)C)sc34)ccc12 | 8.00 to 9.00
CNC(=O)c1cccc2c(F)c(Oc3ccnc4cc(C(=O)N5CC[C@H](OC)C5)sc34)ccc12 | > 9.00

Query: pKi; subject: O=C(Nc1ccc(N2CCC(O)CC2)nc1)c1cccc2cc(Oc3ccnc4ccsc34)ccc12 > 9.00

Request the reported pKi associated with O=C(NCCCN1CCOCC1)c1cccc2cc(Oc3ncnc4ccsc34)ccc12 8.00 to 9.00

Fill in: pKi of CNC(=O)c1cccc2cc(Oc3ccnc4cc(C(=O)N5CC[C@H](OC)C5)sc34)ccc12 is ___ > 9.00

---

Listing of entries alongside the reported pIC50.
- System: human umbilical vein endothelial cells (HUVEC)
- experimentalProtocol: HUVEC+VEGF Proliferation Assay
- Format: cell-based
- reportedConditions: VEGF-stimulated proliferation, final VEGF 6 ng/mL, 72 hours, MTT dye reduction
pIC50: −log10 of the molar value.

Record excerpt, results attached:
CNC(=O)c1cccc2cc(Oc3ccnc4cc(OC)ccc34)ccc12 | 8.00 to 9.00
CNC(=O)c1cccc2cc(Oc3ccnc4cc(C(=O)N5CC[C@@H](N(C)C)C5)sc34)ccc12 | 8.00 to 9.00
O=C(NCCN1CCOCC1)c1cccc2cc(Oc3ccnc4cc(C(=O)N5CCC5)sc34)ccc12 | 8.00 to 9.00

Item under review: CNC(=O)c1cccc2cc(Oc3ccnc4cc(C(=O)N(C)CCN(C)C)sc34)ccc12 . Reported pIC50? < 8.00

Look at this compound and give its reported pIC50. Cn1ccnc1-c1cc2nccc(Oc3ccc4c(C(=O)NCCN5CCOCC5)cccc4c3)c2s1 8.00 to 9.00

Name the reported pIC50 value associated with the compound CCCCNC(=O)c1cccc2cc(Oc3ccnc4cc(O)ccc34)ccc12 8.00 to 9.00

Request the reported pIC50 associated with CNC(=O)c1cccc2c(F)c(Oc3ccnc4cc(C(=O)N5CC[C@H](OC)C5)sc34)ccc12 > 9.00

---

- Test system: human umbilical vein endothelial cells (HUVEC)
- experimentalProtocol: HUVEC+VEGF Proliferation Assay
- Type: cell-based
- reportedConditions: VEGF-stimulated proliferation, final VEGF 6 ng/mL, 72 hours, MTT dye reduction
observationType: IC50

Some solved cases for reference:
CCCCNC(=O)c1cccc2cc(Oc3ccnc4cc(OC)ccc34)ccc12 [Example 47] | > 0.01 µM
Cn1ccnc1-c1cc2nccc(Oc3ccc4c(C(=O)NCCCN5CCOCC5)cccc4c3)c2s1 [Example 30] | < 0.001 µM
CNC(=O)c1cccc2cc(Oc3ccnc4cc(C(=O)N(C)CCO)sc34)ccc12 [Example 8] | > 0.01 µM
O=C(NCCN1CCOCC1)c1cccc2cc(Oc3ccnc4ccsc34)ccc12 [Example 15] | > 0.01 µM
O=C(NCCCN1CCOCC1)c1cccc2cc(Oc3ccnc4ccsc34)ccc12 [Example 39] | 0.001 to 0.01 µM

State its IC50 on human umbilical vein endothelial cells (HUVEC): O=C(Nc1ccc(N2CCOCC2)nc1)c1cccc2cc(Oc3ccnc4ccsc34)ccc12 [Example 35] 0.001 to 0.01 µM

Find the measured IC50: item CNC(=O)c1cccc2cc(Oc3ccnc4cc(OCCN5CCCCC5)ccc34)ccc12 [Example 46] , target or system human umbilical vein endothelial cells (HUVEC). < 0.001 µM

Give recorded IC50 with human umbilical vein endothelial cells (HUVEC) for the following compound: O=C(NCCCN1CCOCC1)c1cccc2cc(Oc3ncnc4ccsc34)ccc12 [Example 42] > 0.01 µM
